Give measured Max MedFi for each item. Keep answers brief.
Target: T1, human Nectin-4 expressed on cells (human, UniProt Q96NY8 32-510)
T1 construct: On SUM190, SUM185, MDA-MB-468 cells (endogenous) or transfected cells; 31-residue signal peptide left out; also called huN4; wild-type human Nectin-4
T1 sequence: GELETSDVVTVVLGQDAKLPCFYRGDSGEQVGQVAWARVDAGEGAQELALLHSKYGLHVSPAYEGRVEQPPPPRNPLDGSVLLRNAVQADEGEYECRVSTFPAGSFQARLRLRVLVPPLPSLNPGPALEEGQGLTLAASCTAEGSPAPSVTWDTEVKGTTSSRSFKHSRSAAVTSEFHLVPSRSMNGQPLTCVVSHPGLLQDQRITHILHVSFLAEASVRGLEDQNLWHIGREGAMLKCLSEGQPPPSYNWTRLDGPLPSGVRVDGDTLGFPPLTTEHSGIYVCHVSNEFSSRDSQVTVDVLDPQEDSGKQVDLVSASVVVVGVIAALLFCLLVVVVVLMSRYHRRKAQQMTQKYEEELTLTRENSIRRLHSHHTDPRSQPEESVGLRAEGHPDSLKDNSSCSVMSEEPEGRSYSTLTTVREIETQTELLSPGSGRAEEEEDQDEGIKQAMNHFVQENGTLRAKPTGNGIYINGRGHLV
Experiment: flow cytometry on SUM190 cells, MedFI at saturation
Provide only the numeric value, understood in MedFI.

Record summary for H3L1 (antibody, human IgG1, V domains shown, human IgG1 isotype) VH: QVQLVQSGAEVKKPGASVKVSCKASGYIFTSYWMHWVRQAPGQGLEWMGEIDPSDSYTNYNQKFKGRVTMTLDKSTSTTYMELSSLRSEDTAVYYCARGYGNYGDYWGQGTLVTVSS VL: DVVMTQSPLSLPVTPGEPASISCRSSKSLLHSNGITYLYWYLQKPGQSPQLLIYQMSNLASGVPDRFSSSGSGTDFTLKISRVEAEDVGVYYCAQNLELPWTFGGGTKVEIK : reported Max MedFi = 17200

Field Max MedFi (entry H3L2 (antibody, human IgG1, V domains shown, human IgG1 isotype) VH: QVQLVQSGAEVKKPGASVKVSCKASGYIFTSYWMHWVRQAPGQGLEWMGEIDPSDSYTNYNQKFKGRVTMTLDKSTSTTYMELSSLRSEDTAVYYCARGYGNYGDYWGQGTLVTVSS VL: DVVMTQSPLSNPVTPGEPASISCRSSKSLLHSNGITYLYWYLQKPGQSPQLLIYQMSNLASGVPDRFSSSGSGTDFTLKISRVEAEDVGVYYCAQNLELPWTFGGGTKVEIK ) reads 22900

According to the records, this binder chimeric parental 5E7 antibody (antibody, V domains shown, Chimeric antibody, murine variable domains with human constant regions; also called ch5E7; CHG1-M-1N4-5E7) VH: QVQLQQPGAELVKPGASVKLSCKASGYIFTSYWMHWVKQRPGQGLEWIGEIDPSDSYTNYNQKFKGKATLTLDKSSSTTYMQLSSLTSEDSAVYYCVRGYGNYGDYWGQGTTLTVSS VL: DVVMTQAAFSNPVTLGTSASISCRSSKSLLHSNGITYLYWYLQKPGQSPQLLIYQMSNLASGVPDRFSSSGSGTDFTLRISRVEAEDVGVYYCAQNLELPWTFGGGTKLEIKR displays Max MedFi of 25200

Values were extracted from patent US20250297004A1.
